tested on: Botulinum neurotoxin type F light chain protease (Clostridium botulinum); test: Botulinum neurotoxin type F light chain protease inhibition, multiplex microsphere flow cytometry, validation set (AID 588459); settings: multiplex microsphere protease substrate cleavage assay, at 10 µM, active compounds read high
ASSAY READOUT: inhibition (%)
Expressed in %, but write only the number.

COMPOUND | inhibition / %
CC(C)N1C(=O)/C(=C\c2nc3ccccc3c(=O)[nH]2)c2ccccc21 | -0.2
Cc1ccc2[nH]c3c(c2c1)CN(C)CC3 | -2.8
CC(C)(C)N(Cc1ccccc1)C(=O)c1ccc(Br)o1 | -1.1
CC(=O)NC1C(OCCOc2ccc(Cl)cc2Cl)OC(COC(C)=O)C(OC(C)=O)C1OC(C)=O (centres undefined) | -1.5

Return the recorded inhibition value; entry: COc1cc(SC)ccc1C(=O)NC(C)C 2.9

* * *

assay: inhibitors of CD8+ T cell-vesicle binding, pilot screen, LFA-1/ICAM-1 modulator project, MLPCN validation set, flow cytometry (AID 2523); settings: 2C mouse CD8+ T cells, at 7 µM, active compounds read low;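 also: mean PE anti-B7-1 fluorescence of CD8+ cells relative to row control; 100% = QL9-loaded vesicles with DMSO vehicle in the same plate row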
vesicle binding response by entry:
Expressed in %, but write only the number.

Answered examples (2):
COMPOUND | vesicle binding response (%)
O=C1NC(=O)C2(Cc3ccccc3N3CCCC32)C(=O)N1c1ccc(Cl)cc1 (stereo unspecified) | 186
Clc1ccc(COC(Cn2ccnc2)c2ccc(Cl)cc2Cl)c(Cl)c1 (stereo unspecified) | 306

Return the recorded vesicle binding response value; entry: CC(=O)OC1C2CCC1C(N1CCCC1)CC2 (stereo unspecified) 162

Return the recorded vesicle binding response value; entry: CN1C(=O)N(C)C(=O)C2(Cc3ccccc3N3CCOCC32)C1=O (stereo unspecified) 3430

Return the recorded vesicle binding response value; entry: CC[C@]12C=CCN3CCC4(c5cc(Br)c(OC)cc5N(C)C4[C@@](O)(C(=O)OC)[C@@H]1OC(C)=O)C32 (stereo partly specified) 18.6

* * *

GFP response vs DMSO by entry:
assay: modulators of MEP2-GFP levels in yeast, primary screen, S. cerevisiae, multiplex flow cytometry (AID 1867);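 also: median GFP channel fluorescence of barcode-gated MEP2-GFP cells measured by flow cytometry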; details: S. cerevisiae MEP2-GFP strain, 3 h, at 10 µM, active compounds read high
Records with an inconclusive call do not appear.
Expressed in %, but write only the number.

MOLECULE | GFP response vs DMSO [%]
S=C1NCCN1 | 109

Moving on to the next molecule.
Return the recorded GFP response vs DMSO value; entry: O=c1[nH]c(=S)n(-c2ccccc2)c(O)c1/C=N/N1CCCCC1c1cccnc1 (stereo not given) 100

* * *

tested on: Botulinum neurotoxin type F light chain protease (Clostridium botulinum); experiment: Botulinum neurotoxin type F light chain protease inhibition, multiplex microsphere flow cytometry, validation set (AID 588459); conditions: multiplex microsphere protease substrate cleavage assay, at 10 µM, active compounds read high
inhibition by entry:
Expressed in %, but write only the number.

MOLECULE | TGT | inhibition (%)
O=C(O)c1cc(-c2ccc3c(c2)OCO3)nc2ccc(Br)cc12 | Botulinum neurotoxin type F light chain protease (Clostridium botulinum) | -1

Return the recorded inhibition value; entry: CC1(C)OC2OC(C(=O)N/N=C/c3ccccc3F)C3OC(C)(C)OC3C2O1 (stereo unspecified) 2.6

Return the recorded inhibition value; entry: COc1cccc(N2C(=O)[C@H]3C(C(=O)c4cnccn4)=NN[C@H]3C2=O)c1 3

* * *

inhibition by entry:
molecular target: Botulinum neurotoxin type A (Clostridium botulinum); experiment: BoNT/A light chain protease inhibitors, biochemical, multiplex microsphere flow cytometry, validation set (AID 588460); conditions: at 10 µM, active compounds read high
Expressed in %, but write only the number.

Answered examples (5):
COMPOUND SMILES | U | inhibition
CC1(C)Cc2ccccc2-c2nc(-c3ccccc3)oc(=O)c21 | % | 0
CCc1c(C)c2ccc(OCC(=O)OC(C)C)c(C)c2oc1=O | % | -0.4
Cc1ccc(C(=O)Nc2ccc(O)cc2C(=O)O)cc1C | % | 2.6
CC(C)(Oc1ccc(CCNC(=O)c2ccc(Cl)cc2)cc1)C(=O)O | % | 0.1
COc1ccc2[nH]c3c(c2c1)CCn1c-3nc2ccccc2c1=O | % | 2.2

Report inhibition on Botulinum neurotoxin type A (Clostridium botulinum) for this entry: O=C(O)COc1ccc2occ(C(=O)c3ccccc3)c2c1 0.2
